Numbers sourced from PubChem BioAssay (NCI).

# Test system: MDA-MB-435 melanoma
# protocol-text: NCI-60 one-dose screen, 48 h (100 = growth as untreated, 0 = no growth, -100 = all killed)
# conditions-used: 10 µM unless noted
This is part of a sample that, as a whole, favours compounds with a hit. Of some 83,000 tested, about 20% had one in any assay.
Catalogue of compounds with associated growth
Give just the number in %; leave the unit off.

These recorded examples may help you get a feel for the data.
[[record]]
compound = "O=C(Nc1cccc2[nH]c(C(F)(F)F)nc12)c1cc(Cl)ccc1Cl"
observable = "growth"
measurement_unit = "%"
observed_result = 33.3

[[record]]
compound = "N#Cc1c(NC(=O)c2ccc(Br)cc2)sc2c1CCCC2"
observable = "growth"
measurement_unit = "%"
observed_result = -22.8

[[record]]
compound = "Oc1ccccc1-c1nc2ccccn2c1NCCN1CCOCC1"
observable = "growth"
measurement_unit = "%"
observed_result = 102

[[record]]
compound = "C=C1C(=O)O[C@H]2[C@H]1CC/C(COC(=O)/C=C\\C(=O)NCc1ccc(Cn3c(=O)sn(CCCC)c3=O)cc1)=C\\CC[C@@]1(C)O[C@@H]21"
observable = "growth"
measurement_unit = "%"
observed_result = -73.9

[[record]]
compound = "CCCCOc1nc2ccc(Cl)cc2cc1/C=C/C(=O)/C=C1/CC(c2cc3cc(Cl)ccc3nc2OCCCC)Nc2ccccc2N1 (stereo not drawn)"
observable = "growth"
measurement_unit = "%"
observed_result = 104


Using the record for COc1cc(/C=C/C(=O)c2cccc(-n3cc(-c4ccccc4)[nH]c3=O)c2)cc(OC)c1OC , report its growth.
-3.32

Using the record for CCN(CC)CCNc1ccc(C)c2sc3cc(C)ccc3c(=O)c12 , report its growth.
37.3

Using the record for O=C1c2ccccc2C(=O)c2cc(Cn3cc[n+](Cc4ccc5ccccc5c4)c3)ccc21 , report its growth.
84.8

Using the record for Cn1cc(Nc2nccc(-c3ccc(N4CCCC4)c(C#N)c3)n2)cn1 , report its growth.
0.731

Using the record for CC1(C)C(=O)/C(=C\c2cccnc2)C[C@]2(C)[C@H]3CC=C4[C@@H]5C[C@@](C)(C(=O)O)CC[C@]5(C)CC[C@@]4(C)[C@]3(C)CC[C@@H]12 , report its growth.
103

Using the record for NC(=O)CC1(O)C=C(Br)C(=O)C(Br)=C1 , report its growth.
32.4

Using the record for Cc1cn(C2CCCCC2)c(=O)[nH]c1=O , report its growth.
108

Using the record for O=C1CC(c2ccc3c(c2)OCO3)Nc2cc3c(cc21)OCO3 (stereo not drawn) , report its growth.
-34.6
